Record type: IC50 measurement. Applies to: cMET (Homo sapiens)

Before answering, review these 4 worked examples.
- smilesStr: "CC(C)n1c(=O)[nH]c2nccc(Oc3ccc(NC(=O)c4cnn(-c5ccncn5)c4C(F)(F)F)cc3F)c21"
  quantityKind: "IC50"
  measured: "0.5 to 5 µM"
- smilesStr: "CC(C)n1c(=O)[nH]c2nccc(Oc3ccc(NC(=O)c4cnn(-c5ccc(F)cn5)c4C(F)(F)F)cc3F)c21"
  quantityKind: "IC50"
  measured: "> 5 µM"
- smilesStr: "Cc1ccnc(-n2ncc(C(=O)Nc3ccc(Oc4ccnc5[nH]c(=O)n(C(C)C)c45)c(F)c3)c2C(F)(F)F)c1"
  quantityKind: "IC50"
  measured: "> 5 µM"
- smilesStr: "CN1CCC(n2c(=O)[nH]c3nccc(Oc4ccc(NC(=O)c5cnn(-c6ncccc6F)c5C(F)(F)F)cc4F)c32)CC1"
  quantityKind: "IC50"
  measured: "> 5 µM"

Lab note: compound `CC(C)n1c(=O)[nH]c2nccc(Oc3ccc(NC(=O)c4cnn(-c5ccncc5)c4C(F)(F)F)cc3F)c21` tested on cMET (Homo sapiens); recorded IC50 was 0.5 to 5 µM

cMET (Homo sapiens) assay, compound `COc1ccnc(-n2ncc(C(=O)Nc3ccc(Oc4ccnc5[nH]c(=O)n(C(C)C)c45)c(F)c3)c2C(F)(F)F)c1` , recorded IC50 = 0.5 to 5 µM

Query `CC(C)n1c(=O)[nH]c2nccc(Oc3ccc(NC(=O)c4cnn(-c5cc(C(F)(F)F)ccn5)c4C(F)(F)F)cc3F)c21` on cMET (Homo sapiens); IC50 returned: > 5 µM

Summary line: `CCc1c(C(=O)Nc2ccc(Oc3ccnc4[nH]c(=O)n(C5CCCC5)c34)c(F)c2)cnn1-c1cncnc1` , cMET (Homo sapiens), reported IC50 = > 5 µM

The observed IC50 for `Cc1cccc(-n2ncc(C(=O)Nc3ccc(Oc4ccnc5[nH]c(=O)n(C(C)C)c45)c(F)c3)c2C(F)(F)F)n1` when tested with cMET (Homo sapiens) stands at 0.5 to 5 µM

====

Let's go through some recorded pIC50 values for RON (Homo sapiens) together.
pIC50: −log10 of the molar value.

With RON (Homo sapiens) as the test system, Cc1cnc(-n2ncc(C(=O)Nc3ccc(Oc4ccnc5[nH]c(=O)n(C(C)C)c45)c(F)c3)c2C(F)(F)F)nc1 [Example 36] showed pIC50 of > 7.30

Item: CCc1c(C(=O)Nc2ccc(Oc3ccnc4[nH]c(=O)[nH]c34)c(F)c2)cnn1-c1cncnc1 [Example 1] | System: RON (Homo sapiens) | pIC50: < 5.30

The molecule CC(C)n1c(=O)[nH]c2nccc(Oc3ccc(NC(=O)c4cnn(-c5cccnc5)c4C(F)(F)F)cc3F)c21 [Example 23] , when measured on RON (Homo sapiens), yielded pIC50 of > 7.30

Entry CC(C)n1c(=O)[nH]c2nccc(Oc3ccc(NC(=O)c4cnn(-c5ccc(F)cn5)c4C(F)(F)F)cc3F)c21 [Example 21] : pIC50 on RON (Homo sapiens) = > 7.30

====

pIC50: −log10 of the molar value.
In what follows, each item is paired with its pIC50 for cMET (Homo sapiens, UniProt P08581).

As a guide, the following entries are already answered.
- molecule: "CC(C)n1c(=O)[nH]c2nccc(Oc3ccc(NC(=O)c4cnn(-c5cccnc5)c4C(F)(F)F)cc3F)c21 [Example 23]"
  subjectOfTest: "cMET (Homo sapiens, UniProt P08581)"
  measured: "5.30 to 6.30"
- molecule: "CC(C)n1c(=O)[nH]c2nccc(Oc3ccc(NC(=O)c4cnn(-c5cc(F)ccn5)c4C(F)(F)F)cc3F)c21 [Example 38]"
  subjectOfTest: "cMET (Homo sapiens, UniProt P08581)"
  measured: "< 5.30"
- molecule: "CC(C)n1c(=O)[nH]c2nccc(Oc3ccc(NC(=O)c4cnn(-c5ncccn5)c4C(F)(F)F)cc3F)c21 [Example 25]"
  subjectOfTest: "cMET (Homo sapiens, UniProt P08581)"
  measured: "5.30 to 6.30"
- molecule: "CC(C)n1c(=O)[nH]c2nccc(Oc3ccc(NC(=O)c4cnn(-c5cccnn5)c4C(F)(F)F)cc3F)c21 [Example 35]"
  subjectOfTest: "cMET (Homo sapiens, UniProt P08581)"
  measured: "5.30 to 6.30"

pIC50 for CC(C)n1c(=O)[nH]c2nccc(Oc3ccc(NC(=O)c4cnn(-c5cc(Br)ccn5)c4C(F)(F)F)cc3F)c21 [Example 16] is < 5.30

This collection of values is drawn from patent US20240317739A1.
